Reported pIC50 values are given for each entry in this list.
Molecular target: human Plasma Kallikrein (KLKB1) (Homo sapiens (Human), UniProt P03952)
Sequence (P03952 391-638): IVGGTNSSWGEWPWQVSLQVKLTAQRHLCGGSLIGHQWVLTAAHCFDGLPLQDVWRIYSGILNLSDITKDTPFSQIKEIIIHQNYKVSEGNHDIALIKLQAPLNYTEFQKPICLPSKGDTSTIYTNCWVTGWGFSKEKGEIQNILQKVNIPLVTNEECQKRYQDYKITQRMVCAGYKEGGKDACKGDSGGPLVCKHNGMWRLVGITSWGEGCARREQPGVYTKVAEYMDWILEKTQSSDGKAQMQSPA
Sequence (P03952 20-390 partner): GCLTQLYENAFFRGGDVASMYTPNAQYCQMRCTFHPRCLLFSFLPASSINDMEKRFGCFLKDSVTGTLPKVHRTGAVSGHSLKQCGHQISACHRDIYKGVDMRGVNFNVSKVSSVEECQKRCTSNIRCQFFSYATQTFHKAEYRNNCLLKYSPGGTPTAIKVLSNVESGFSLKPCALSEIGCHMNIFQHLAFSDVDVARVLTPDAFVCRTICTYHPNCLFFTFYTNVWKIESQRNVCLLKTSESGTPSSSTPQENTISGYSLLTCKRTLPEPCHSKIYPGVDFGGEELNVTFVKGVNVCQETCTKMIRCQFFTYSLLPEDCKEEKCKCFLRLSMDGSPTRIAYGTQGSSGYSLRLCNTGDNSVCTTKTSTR
Assay: Inhibition of KLKB1 endpoint assay
Settings: fluorogenic substrate H-Pro-Phe-Arg-AMC, 1 hr at Room Temperature, read-out: IC50 measurements for the inhibition of human Plasma Kallikrein (KLKB1)
Please note pIC50 is a logarithmic value: minus log10 of concentration in mol/L. Answer with that number alone.

# example entries with known answers
{"MOLECULE": "C[C@H]1CCN(c2ccc(Cn3cc(C(=O)N[C@@H]4CCc5nc(N)ccc54)c(C(F)(F)F)n3)cn2)C1", "pIC50": 7.40}
{"MOLECULE": "CC(C)(O)c1cccn(Cc2ccc(Cn3cc(C(=O)NC4CCc5nc(N)ccc54)nn3)cc2)c1=O (stereo not shown)", "pIC50": 6.25}
{"MOLECULE": "Nc1ccc2c(n1)CCC2NC(=O)c1cn(Cc2ccc(C(F)c3ccon3)cc2)nn1 (stereo not shown)", "pIC50": 5.26}
{"MOLECULE": "Cc1cnn(Cc2ccc(Cn3cc(C(=O)N[C@@H]4CCc5c4ccnc5N)c(C(F)(F)F)n3)cc2)c1", "pIC50": 9.00}
{"MOLECULE": "Cc1cnn(Cc2ccc(Cn3cc(C(=O)N[C@@H]4CCc5nc(N)ccc54)c(C(F)(F)F)n3)cc2)c1", "pIC50": 7.74}
{"MOLECULE": "Cc1ccc2cc(Cn3cc(C(=O)NC4CCc5nc(N)ccc54)nn3)ccc2n1 (stereo not shown)", "pIC50": 6.04}
{"MOLECULE": "Nc1nccc2c1C(NC(=O)c1cn(Cc3ccc(Cn4cccn4)cc3)nn1)CC2 (stereo not shown)", "pIC50": 6.22}
{"MOLECULE": "Nc1cc2c(cn1)C(NC(=O)c1cn(Cc3ccc(Cn4cccn4)cc3)nn1)CC2 (stereo not shown)", "pIC50": 6.10}

Ask: Hello, please tell me recorded pIC50 for this one: Nc1ccc2c(n1)CCC2NC(=O)c1cnn(Cc2ccc(Cn3cccn3)cc2)c1 (stereo not shown)
Result: 7.49

Ask: Hello, please tell me recorded pIC50 for this one: Cc1ccc2cc(Cn3cc(C(=O)NC4CCCc5nc(N)ccc54)nn3)ccc2n1 (stereo not shown)
Result: 6.05
